Target or system UniProt:P00915: recorded pKi listed per item.
pKi: −log10 of the molar value.
Test Readout: pKi

[P] CC1(C)N=C(N)N=C(N)N1c1ccc(S(N)(=O)=O)cc1
[Q] N#C/C(=C\c1cccc(Cl)c1)c1nc(N)nc(Nc2ccc(S(N)(=O)=O)cc2)n1 [Compound 12h]
# return whichever of P and Q has the smaller pKi Let me know the label of the one you choose. P

[P] N#C/C(=C\c1ccc(F)cc1)c1nc(N)nc(Nc2ccc(S(N)(=O)=O)cc2)n1 [Compound 12f.]
[Q] NC1=NC2(CCCC2)NC(Nc2ccc(S(N)(=O)=O)cc2)=N1
Please tell me which of the two, P or Q , has the higher reported pKi value. Write down the label of the entry you select. Q

* * *

biological target: hCA XII (Homo sapiens); construct: made in house; experiment: stopped-flow CO2 hydrase assay, hCA XII; assay type: biochemical; settings: hCA XII over off-target hCA I
Sequence (O43570 25-354): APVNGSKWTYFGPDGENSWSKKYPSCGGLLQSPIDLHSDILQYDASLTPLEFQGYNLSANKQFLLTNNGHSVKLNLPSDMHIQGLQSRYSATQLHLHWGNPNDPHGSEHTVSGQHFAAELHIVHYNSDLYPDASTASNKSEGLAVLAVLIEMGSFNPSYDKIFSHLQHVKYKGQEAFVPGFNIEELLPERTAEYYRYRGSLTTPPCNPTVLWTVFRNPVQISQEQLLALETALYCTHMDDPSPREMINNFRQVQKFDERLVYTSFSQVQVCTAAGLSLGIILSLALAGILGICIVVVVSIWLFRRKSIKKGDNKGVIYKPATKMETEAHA
Test Readout: Selectivity index (SI) I/XII

>>> reported_measurement("N#C/C(=C\\c1cccc(Br)c1)c1nc(N)nc(Nc2ccc(S(N)(=O)=O)cc2)n1 [Compound 12b]")
0.3
>>> reported_measurement("Cc1ccc(/C=C(\\C#N)c2nc(N)nc(Nc3ccc(S(N)(=O)=O)cc3)n2)cc1 [Compound 12g]")
0.07
>>> reported_measurement("N#CCc1nc(N)nc(Nc2ccc(S(N)(=O)=O)cc2)n1")
0.01
>>> reported_measurement("NC1=NC2(CCCCC2)N(c2ccc(S(N)(=O)=O)cc2)C(N)=N1")
0.1

[1] CC1CCC2(CC1)N=C(N)N=C(Nc1ccc(S(N)(=O)=O)cc1)N2 (centres unmarked)
[2] NC1=NC2(CCCC2)N(c2ccc(S(N)(=O)=O)cc2)C(N)=N1
[3] CN(C)c1ccc(/C=C(\C#N)c2nc(N)nc(Nc3ccc(S(N)(=O)=O)cc3)n2)cc1 [Compound 12d]
[4] N#C/C(=C\c1cccc(Cl)c1)c1nc(N)nc(Nc2ccc(S(N)(=O)=O)cc2)n1 [Compound 12h]
List these items ordered by Selectivity index (SI) I/XII, big to small. Returns: the labels arranged in the requested order. 4, 3, 1, 2
(4: 5.8, 3: 3, 1: 0.4, 2: 0.1)

[P] COc1ccc(/C=C(\C#N)c2nc(N)nc(Nc3ccc(S(N)(=O)=O)cc3)n2)cc1 [Compound 12c]
[Q] N#C/C(=C\c1ccccc1)c1nc(N)nc(Nc2ccc(S(N)(=O)=O)cc2)n1 [Compound 12a]
Returns: the argument ( P or Q ) having the larger Selectivity index (SI) I/XII. The response must carry the label of the picked entry. Q
(Q: 0.4, P: 0.1)

* * *

The next entries give measured pKi for hCA I (Homo sapiens).
pKi: −log10 of the molar value.
Test Readout: pKi

[a] NC1=NC2(CCCC2)N(c2ccc(S(N)(=O)=O)cc2)C(N)=N1 [Compound 6a]
[b] N#C/C(=C\c1ccccc1)c1nc(N)nc(Nc2ccc(S(N)(=O)=O)cc2)n1 [Compound 12a]
Sorting ascending by pKi, which comes first: a or b ? Indicate which entry you chose by stating its label. b

[I] COc1ccc(/C=C(\C#N)c2nc(N)nc(Nc3ccc(S(N)(=O)=O)cc3)n2)cc1 [Compound 12c]
[II] N#C/C(=C\c1ccc2c(c1)OCO2)c1nc(N)nc(Nc2ccc(S(N)(=O)=O)cc2)n1 [Compound 12e]
Compare I and II and name the one whose reported pKi is smaller. Selection: enter the item's label. II

These entries and their values trace back to paper PMC9537541.
